assay overview: chemical genetic growth profiling, strain panel (AID 1159580);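 further: tested at 20 µM; growth read once vehicle control cultures reached saturation at 30 °C; 1 = growth at the plate median or of vehicle wells; lower values mean less growth of the strain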
stated conditions: S. cerevisiae deletion strains, growth OD, locus YKR026C, strain gcn3, hits give low values
The whole screen tested about 5,500 compounds, of which about 2,000 (36%) were called active. Roughly 18% stayed inconclusive and do not appear here. The list shows a part of the results.
measured endpoint: normalized growth
Write the value as a bare number.

Task: Please give the documented normalized growth of O=C(O)CCC(=O)OC[C@@H](NC(=O)C(Cl)Cl)[C@H](O)c1ccc([N+](=O)[O-])cc1
Output: 0.984

Task: Please give the documented normalized growth of CC(NC(C)(C)C)C(=O)c1cccc(Cl)c1 (stereo not drawn)
Output: 0.995

Task: Please give the documented normalized growth of CCCCCCCCCCCCCCCC(=O)OC[C@H](NC(=O)C(Cl)Cl)[C@H](O)c1ccc([N+](=O)[O-])cc1
Output: 1.03

These data points were gathered from PubChem BioAssay AID1159580.
